Catalogue of fold induction at 2.5 µM readings, one per entry.
Test system: LMP1 expression in Kem I cells
TEST_DESCRIPTION: microbe, parasite or virus in culture
Type: cell-based, EBV
STUDY_CONDITIONS: human gammaherpesvirus 4, 48 h, read-out: Replicate 1-LMP1 Fold Increase, Kem I cells, 2.5 uM, 48 hours, fold change in LMP1 transcript vs vehicle
Please state the value as a number alone, without comment.

Solved cases (6 shown):
{"COMPOUND": "C=CCn1c(=O)c2cnc(Nc3ccc(N4CCN(C)CC4)cc3)nc2n1-c1cccc(C(C)(C)O)n1 [MK-1775]", "OBSERVED": 6.01}
{"COMPOUND": "COc1ccccc1Oc1c(NS(=O)(=O)c2ccc(C(C)(C)C)cc2)nc(-c2ncccn2)nc1OCCO [Bosentan Hydrate]", "OBSERVED": 1.22}
{"COMPOUND": "Cc1ccccc1C(=O)Nc1ccc(C(=O)N2CCCC(N(C)C)c3ccccc32)cc1 (centres unmarked) [Mozavaptan]", "OBSERVED": 0.32}
{"COMPOUND": "CC(C)(C)NC(=O)[C@H]1CC[C@H]2[C@@H]3CC[C@H]4NC(=O)C=C[C@]4(C)[C@H]3CC[C@]12C [Finasteride]", "OBSERVED": 0.51}
{"COMPOUND": "COc1ccc2cccc(CCNC(C)=O)c2c1 [Agomelatine]", "OBSERVED": 0.34}
{"COMPOUND": "CC(C)N(CCCNC(=O)Nc1ccc(C(C)(C)C)cc1)C[C@H]1O[C@@H](n2cc(Br)c3c(N)ncnc32)[C@H](O)[C@@H]1O [SGC 0946]", "OBSERVED": 0.26}

Okay, now this compound:
Recorded fold induction at 2.5 µM (compound CCOC(=O)C1=C(C)NC(C)=C(C(=O)OC)C1c1cccc(Cl)c1Cl (centres unmarked) [Felodipine] ): 0.84

* * *

Below, each entry is listed with its recorded fold induction at 2.5 µM.
Tested on: LMP1 expression in Kem I cells
TEST_DESCRIPTION: microbe, parasite or virus in culture
Format: cell-based, EBV
STUDY_CONDITIONS: human gammaherpesvirus 4, 48 h, read-out: Replicate 1-LMP1 Fold Increase, Kem I cells, dose 2.5 uM, 48 hours, LMP1 transcript by in-well qRT-PCR, screen replicate 1
Structures can show the parent of a compound that is named as a salt.
Form field (numeric): enter value without unit.

Guide cases for fold induction at 2.5 µM, answers given:
{"COMPOUND": "CC(C)OC(=O)C1=CN(C(=O)c2ccc(F)c(F)c2)CC(C)(C)c2c1[nH]c1ccccc21", "fold induction at 2.5 µM": 0.39}
{"COMPOUND": "NC(=O)c1cccc(-c2cccc(OC(=O)NC3CCCCC3)c2)c1", "fold induction at 2.5 µM": 0.52}
{"COMPOUND": "c1ccc(CC2=NCCN2)cc1 [Tolazoline HCl]", "fold induction at 2.5 µM": 0.26}
{"COMPOUND": "O=c1ncccn1[C@@H]1O[C@H](CO)[C@@H](O)[C@H]1O", "fold induction at 2.5 µM": 0.24}
{"COMPOUND": "Clc1ccccc1CN1CCc2sccc2C1 [Ticlopidine HCl]", "fold induction at 2.5 µM": 0.52}
{"COMPOUND": "CS(=O)(=O)c1ccc(-c2cnc(N)c(C(=O)Nc3ccccc3)n2)cc1", "fold induction at 2.5 µM": 0.2}
{"COMPOUND": "CN1CC(=O)N2[C@H](c3ccc4c(c3)OCO4)c3[nH]c4ccccc4c3C[C@@H]2C1=O", "fold induction at 2.5 µM": 3.8}
{"COMPOUND": "CCO[C@@H]1OC(=O)C[C@@H]1NC(=O)[C@@H]1CCCN1C(=O)[C@@H](NC(=O)c1ccc(N)c(Cl)c1)C(C)(C)C", "fold induction at 2.5 µM": 0.45}

response.value for CCCc1nc2c(C)cc(-c3nc4ccccc4n3C)cc2n1Cc1ccc(-c2ccccc2C(=O)O)cc1 (field: fold induction at 2.5 µM) = 0.29

Form: compound = Nc1nc(N)c2nc(-c3ccccc3)c(N)nc2n1 ; fold induction at 2.5 µM = 0.56

* * *

Tested on: LMP1 expression in Kem I cells
TEST_DESCRIPTION: microbe, parasite or virus in culture
Format: cell-based, EBV
STUDY_CONDITIONS: human gammaherpesvirus 4, 48 h, read-out: Replicate 2-LMP1 Fold Increase, Kem I cells, 2.5 uM, 48 hours, fold change in LMP1 transcript vs vehicle
MEASURED_QUANTITY: fold induction at 2.5 µM
# output: bare number, no unit

Previously resolved entries follow.
{"MOLECULE": "COc1ccc(C(=O)N2CCCC2=O)cc1", "fold induction at 2.5 µM": 0.39}
{"MOLECULE": "Cc1cc2c(cc1CC(=O)c1sccc1S(=O)(=O)Nc1onc(C)c1Cl)OCO2 [Sitaxentan sodium]", "fold induction at 2.5 µM": 0.34}
{"MOLECULE": "CCn1c(=O)c2c(nc(/C=C/c3ccc(OC)c(OC)c3)n2C)n(CC)c1=O", "fold induction at 2.5 µM": 1.06}
{"MOLECULE": "C[C@@H]1O[C@@H](O[C@H]2C[C@@H](O)[C@]3(CO)[C@H]4[C@H](O)C[C@]5(C)[C@@H](C6=CC(=O)OC6)CC[C@]5(O)[C@@H]4CC[C@]3(O)C2)[C@H](O)[C@H](O)[C@H]1O", "fold induction at 2.5 µM": 161}
{"MOLECULE": "CCCN[C@H]1CCc2nc(N)sc2C1 [Pramipexole]", "fold induction at 2.5 µM": 1.27}

Measured fold induction at 2.5 µM, CN1CCN(c2nc(C3=C(c4c[nH]c5ccccc45)C(=O)NC3=O)c3ccccc3n2)CC1 : 0.31

Record summary for CC(C)(C)NC(=O)[C@H]1CC[C@H]2[C@@H]3CC[C@H]4NC(=O)C=C[C@]4(C)[C@H]3CC[C@]12C [Finasteride] : reported fold induction at 2.5 µM = 0.81

* * *

System: LMP1 expression in Kem I cells
TEST_DESCRIPTION: microbe, parasite or virus in culture
Assay type: cell-based, EBV
STUDY_CONDITIONS: human gammaherpesvirus 4, 48 h, read-out: Replicate 1-LMP1 Fold Increase, Kem I cells, 2.5 uM, 48 hours, fold change in LMP1 transcript vs vehicle
Where a name gives a salt, the structure may show the parent alone.
MEASURED_QUANTITY: fold induction at 2.5 µM
Could you keep your reply to the number by itself?

Entry C[C@H](CS)C(=O)N1CCC[C@H]1C(=O)O — recorded fold induction at 2.5 µM = 0.71

In plain terms, CCNC(=O)[C@H]1O[C@@H](n2cnc3c(N)nc(NCCc4ccc(CCC(=O)O)cc4)nc32)[C@H](O)[C@@H]1O [CGS 21680 HCl] has a documented fold induction at 2.5 µM of 0.72

Looking up OC(CNCC(O)C1CCc2cc(F)ccc2O1)C1CCc2cc(F)ccc2O1 (centres unmarked) , I see its fold induction at 2.5 µM listed as 0.83

# molecule CCc1cccc2c3c([nH]c12)C(CC)(CC(=O)O)OCC3 (centres unmarked) ; its fold induction at 2.5 µM = 0.57

molecule CC(C)NCC(O)COc1ccc(COCCOC(C)C)cc1 (centres unmarked) [Bisoprolol fumarate] , fold induction at 2.5 µM observed: 0.41

* * *

Tested on: LMP1 expression in Kem I cells
TEST_DESCRIPTION: microbe, parasite or virus in culture
Assay type: cell-based, EBV
STUDY_CONDITIONS: human gammaherpesvirus 4, 48 h, read-out: Replicate 1-LMP1 Fold Increase, Kem I cells, 2.5 uM, 48 hours, fold change in LMP1 transcript vs vehicle
Where a name gives a salt, the structure may show the parent alone.
Quick list: fold induction at 2.5 µM per entry.
Would you mind answering with just the numeric figure?

{"COMPOUND": "N#CC1(c2ccc(NC(=O)c3cccnc3NCc3ccncc3)cc2)CCCC1", "fold induction at 2.5 µM": 1.23}

Now consider a different compound.
fold induction at 2.5 µM value, target or system LMP1 expression in Kem I cells, for C[C@H](NCc1ccc(OCc2cccc(F)c2)cc1)C(N)=O [Safinamide Mesylate] : 0.2

* * *

Tested on: LMP1 expression in Kem I cells
TEST_DESCRIPTION: microbe, parasite or virus in culture
Assay type: cell-based, EBV
STUDY_CONDITIONS: human gammaherpesvirus 4, 48 h, read-out: Replicate 1-LMP1 Fold Increase, Kem I cells, 2.5 uM, 48 hours, fold change in LMP1 transcript vs vehicle
Measured fold induction at 2.5 µM of individual entries
Reply with just the number.

Use these answered entries as a reference point.
{"MOLECULE": "COc1c(O)cc2c(c1O)[C@@H]1O[C@H](CO)[C@@H](O)[C@H](O)[C@H]1OC2=O", "MEASURED_QUANTITY": "fold induction at 2.5 µM", "OBSERVED": 0.65}
{"MOLECULE": "Cc1cc(Nc2ncc(Cl)c(Nc3ccccc3S(=O)(=O)C(C)C)n2)c(OC(C)C)cc1C1CCNCC1", "MEASURED_QUANTITY": "fold induction at 2.5 µM", "OBSERVED": 0.85}
{"MOLECULE": "C=C1C[C@@H]2[C@H](CC[C@]3(C)C(=O)CC[C@@H]23)[C@@]2(C)C=CC(=O)C=C12", "MEASURED_QUANTITY": "fold induction at 2.5 µM", "OBSERVED": 0.53}
{"MOLECULE": "CC(=O)O[C@]1(C(C)=O)CC[C@H]2[C@@H]3C=C(Cl)C4=CC(=O)[C@@H]5C[C@@H]5[C@]4(C)[C@H]3CC[C@@]21C [Cyproterone Acetate]", "MEASURED_QUANTITY": "fold induction at 2.5 µM", "OBSERVED": 0.27}
{"MOLECULE": "N#Cc1ccc(C(c2ccc(C#N)cc2)n2cncn2)cc1", "MEASURED_QUANTITY": "fold induction at 2.5 µM", "OBSERVED": 0.66}

molecule Cc1c(C(=O)NN2CCCCC2)nn(-c2ccc(Cl)cc2Cl)c1-c1ccc(Cl)cc1 , fold induction at 2.5 µM observed: 0.24

So, CCOc1nc2cccc(C(=O)O)c2n1Cc1ccc(-c2ccccc2-c2nnn[nH]2)cc1 ? Its fold induction at 2.5 µM was 0.34

Looking up Cc1ccc(-c2cc(C(F)(F)F)nn2-c2ccc(S(N)(=O)=O)cc2)cc1 , I see its fold induction at 2.5 µM listed as 0.63
